Test system: secretion of corticosterone, H295R cell line
ASSAY_SUMMARY: cells
Format: cell-based
CONDITION_LABEL: H295R cell line; 0.1-10000 nM; HPLC-MS/MS; Table D3
VALUE_KIND: Corticosterone as an indicator to determine the presence of inhibition
Quick one: just the number, no unit, thanks!

Below: 5 compounds and their reported Corticosterone as an indicator to determine the presence of inhibition.
compound="CCC#CC(C)OC(=O)c1cncn1[C@H](C)c1ccccc1 (some centres unmarked)" study_system="secretion of corticosterone, H295R cell line" meas_value=0
compound=C=C=CC1(OC(=O)c2cncn2[C@H](C)c2ccccc2)CCCCC1 study_system="secretion of corticosterone, H295R cell line" meas_value=0
compound="COC(=O)C1(OC(=O)c2cncn2[C@H](C)c2ccccc2)CC1 [CPMM, cyclopropyl methoxycarbonyl methylate, reference compound]" study_system="secretion of corticosterone, H295R cell line" meas_value=1
compound=CC#CCOC(=O)c1cncn1[C@H](C)c1ccccc1 study_system="secretion of corticosterone, H295R cell line" meas_value=0
compound=C=C=CC1(OC(=O)c2cncn2[C@H](C)c2ccccc2)CCC1 study_system="secretion of corticosterone, H295R cell line" meas_value=0

For the compound CCOC(=O)c1cncn1[C@H](C)c1ccccc1 [Etomidate, reference compound] , report Corticosterone as an indicator to determine the presence of inhibition.
2

For the compound C=CCC1(OC(=O)c2cncn2[C@H](C)c2ccccc2)COC1 , report Corticosterone as an indicator to determine the presence of inhibition.
0

For the compound C/C=C/C1(OC(=O)c2cncn2[C@H](C)c2ccccc2)COC1 , report Corticosterone as an indicator to determine the presence of inhibition.
0

====

Test system: rats
ASSAY_SUMMARY: Pharmacological characteristics at equivalent doses (2×ED50) in rats
CONDITION_LABEL: 2×ED50, tail vein, DMSO solution (DMSO alone 10/10)
Description: Comparison of Pharmacological Characteristics of the Compounds at Equivalent Doses (2×ED50) in Rats Adult male Sprague-Dawley rats (250-300 g) were selected for the experiment (n=8). […] The drugs were administered at a dose twice their ED50 through the tail vein of rats in a volume of 0.6 mL and at a rate of 0.1 mL/s. In addition, the time of LORR was recorded as the onset time of anesthesia. […]
VALUE_KIND: Adverse reactions: Red urine (incidence)

molecule="C[C@H](c1ccccc1)n1cncc1C(=O)OC1(CC2CO2)COC1 (some centres unmarked)" value_kind="Adverse reactions: Red urine (incidence)" meas_value=8/8
molecule=C[C@H](c1ccccc1)n1cnc(F)c1C(=O)OC1(C)COC1 value_kind="Adverse reactions: Red urine (incidence)" meas_value=(8/8)
molecule=C[C@H](c1ccccc1)n1cnc(F)c1C(=O)OCC(C)(C)C value_kind="Adverse reactions: Red urine (incidence)" meas_value=(8/8)
molecule=CCCC1(OC(=O)c2cncn2[C@H](C)c2ccccc2)COC1 value_kind="Adverse reactions: Red urine (incidence)" meas_value=8/8

====

Consider the following compounds and their measured Minimal lethal dose readings.
System: rats
Experimental: Adult male Sprague-Dawley rats (250-300 g) were selected for the experiment. […] The anesthesia effects of the compounds were assessed in rats using a LORR assay and a period >30 s was considered as an indicator of general anesthesia. Then the up and down method was used to determine 50% effective dose (ED50). The drugs were administered through the tail vein of rats in a volume of 0.6 mL and at a rate of 0.1 mL/s.

Below: 2 compounds and their reported Minimal lethal dose.
compound="C=C=CC(C)(C)OC(=O)c1c(F)ncn1[C@H](C)c1ccccc1 [Compound E19]" meas_value=">4 mg/kg"
compound="C=C(C)CC1(OC(=O)c2cncn2[C@H](C)c2ccccc2)CCC1 [Compound D26]" meas_value=">4 mg/kg"

For the compound CSCCSC(=O)c1cncn1[C@H](C)c1ccccc1 [Compound C30] , report Minimal lethal dose.
>11 mg/kg

For the compound C=C=CC(C)OC(=O)c1cncn1[C@H](C)c1ccccc1 (stereo partly drawn) [Compound D22] , report Minimal lethal dose.
>2 mg/kg

For the compound CC(C)OC(=O)c1c(F)ncn1[C@H](C)c1ccccc1 [Compound E24] , report Minimal lethal dose.
>4 mg/kg

For the compound C[C@H](c1ccccc1)n1cnc(F)c1C(=O)OC1(C)COC1 [Compound E38] , report Minimal lethal dose.
>7 mg/kg

For the compound C=CCC1(OC(=O)c2cncn2[C@H](C)c2ccccc2)CCC1 [Compound D12] , report Minimal lethal dose.
>10 mg/kg

For the compound C[C@H](c1ccccc1)n1cnc(F)c1C(=O)OCC(C)(C)C [Compound E26] , report Minimal lethal dose.
>4 mg/kg

For the compound CC#CC1(OC(=O)c2cncn2[C@H](C)c2ccccc2)CCCCC1 [Compound D40] , report Minimal lethal dose.
>4 mg/kg
